The measurements presented in this section are drawn from patent US6833456B2.

Answer each item with its documented % remain (HLM-NADPH, 0.5 h).
- method_summary: Human liver microsome (HLM) assay
- Assay type: in vitro ADME
- test_settings: human liver microsomes, NADPH
Return type: number; implicit unit %.

Look up and report measured % remain (HLM-NADPH, 0.5 h) for this entry: "COC[C@H]1CCCN1C(=O)c1cc2nccc(Nc3ccc4c(c3)cc(C)n4C(=O)NC3CC3)c2s1" 85

Look up and report measured % remain (HLM-NADPH, 0.5 h) for this entry: "CNC(=O)n1c(C)cc2cc(Nc3ccnc4cc(-c5nccn5C)sc34)ccc21" 91.1

Look up and report measured % remain (HLM-NADPH, 0.5 h) for this entry: "C#CCNC(=O)n1c(C)cc2cc(Oc3ccnc4cc(C(=O)N5CCC[C@H]5COC)sc34)ccc21" 76.1

Look up and report measured % remain (HLM-NADPH, 0.5 h) for this entry: "CNC(=O)n1c(C)cc2cc(Nc3ccnc4cc(C(=O)N5CCC[C@H]5COC)sc34)ccc21" 76.3

Look up and report measured % remain (HLM-NADPH, 0.5 h) for this entry: "Cc1cc2cc(Nc3ccnc4cc(-c5nccn5C)sc34)ccc2n1C(=O)NC(C)C" 70.9

Look up and report measured % remain (HLM-NADPH, 0.5 h) for this entry: "Cc1cc2cc(Nc3ccnc4cc(C(=O)N5CCC[C@H]5CO)sc34)ccc2n1C(=O)NC(C)C" 106

Look up and report measured % remain (HLM-NADPH, 0.5 h) for this entry: "COC[C@@H]1CCCN1C(=O)c1cc2nccc(Nc3ccc4c(c3)cc(C)n4C(=O)NC3CC3)c2s1" 76.2

Look up and report measured % remain (HLM-NADPH, 0.5 h) for this entry: "COC[C@@H]1CCCN1C(=O)c1cc2nccc(Oc3ccc4c(c3)cc(C)n4C(=O)NC3CC3)c2s1" 70.9

Look up and report measured % remain (HLM-NADPH, 0.5 h) for this entry: "CNC(=O)n1c(C)cc2cc(Nc3ccnc4cc(C(=O)N5CCC[C@H]5CO)sc34)ccc21" 92.1

====

- tgt: UniProt:P09619
- Sequence (P09619 33-1106): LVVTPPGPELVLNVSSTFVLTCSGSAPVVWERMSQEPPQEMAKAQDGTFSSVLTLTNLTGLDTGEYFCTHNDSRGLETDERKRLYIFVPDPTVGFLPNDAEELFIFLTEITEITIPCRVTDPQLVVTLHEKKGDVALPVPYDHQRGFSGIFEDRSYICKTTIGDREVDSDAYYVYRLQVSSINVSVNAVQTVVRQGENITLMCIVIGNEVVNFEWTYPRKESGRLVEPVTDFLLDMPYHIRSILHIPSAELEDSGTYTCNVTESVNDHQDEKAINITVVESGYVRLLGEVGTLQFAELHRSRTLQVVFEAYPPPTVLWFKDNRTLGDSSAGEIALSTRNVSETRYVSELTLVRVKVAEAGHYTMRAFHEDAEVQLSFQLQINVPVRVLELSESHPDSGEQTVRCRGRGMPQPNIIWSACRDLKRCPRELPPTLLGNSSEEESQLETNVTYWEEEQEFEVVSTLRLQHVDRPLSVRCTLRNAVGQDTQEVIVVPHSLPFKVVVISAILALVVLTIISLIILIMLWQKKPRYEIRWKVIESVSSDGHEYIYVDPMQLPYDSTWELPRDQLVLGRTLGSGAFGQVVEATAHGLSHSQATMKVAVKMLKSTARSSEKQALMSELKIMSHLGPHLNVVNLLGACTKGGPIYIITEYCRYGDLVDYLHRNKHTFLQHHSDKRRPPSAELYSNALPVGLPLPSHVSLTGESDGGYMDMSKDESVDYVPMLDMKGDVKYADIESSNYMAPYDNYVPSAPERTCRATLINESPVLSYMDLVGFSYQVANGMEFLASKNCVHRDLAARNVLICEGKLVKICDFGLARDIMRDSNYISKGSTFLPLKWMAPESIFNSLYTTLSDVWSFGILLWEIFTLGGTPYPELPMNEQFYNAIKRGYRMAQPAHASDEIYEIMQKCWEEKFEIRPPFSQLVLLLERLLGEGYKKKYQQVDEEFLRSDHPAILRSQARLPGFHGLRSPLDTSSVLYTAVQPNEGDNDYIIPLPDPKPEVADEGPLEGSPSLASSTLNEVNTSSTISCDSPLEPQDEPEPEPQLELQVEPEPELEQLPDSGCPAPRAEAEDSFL
- method_summary: PAE-PDGFRβ phosphorylation in PAE-PDGFRB cells assay
- test_settings: PAE cells overexpressing human PDGFRβ, PDGF-BB stimulated; read-out: PAE PDGFR autophos IC50
Answer each item with its documented IC50.
Return type: number; implicit unit nM.

Look up and report measured IC50 for this entry: CO[C@@H]1CCN(C(=O)c2cc3nccc(Oc4ccc5c(c4)cc(C)n5C(=O)NC4CC4)c3s2)C1 [Example 4k] 10

Look up and report measured IC50 for this entry: C#CCNC(=O)n1c(C)cc2cc(Nc3ccnc4cc(C(=O)N5CC[C@H](OC)C5)sc34)ccc21 [Example 1h] 57.7

Look up and report measured IC50 for this entry: CNC(=O)n1c(C)cc2cc(Oc3ccnc4cc(C(=O)N(C)CCO)sc34)ccc21 [Example 3n] 76.3

Look up and report measured IC50 for this entry: C#CCNC(=O)n1c(C)c(Cl)c2c(F)c(Oc3ccnc4cc(C(=O)N5CC[C@H](OC)C5)sc34)ccc21 [Example 6a] 28.6

Look up and report measured IC50 for this entry: CNC(=O)n1c(C)cc2cc(Oc3ccnc4cc(-c5nc(CO)cs5)sc34)ccc21 [Example 3m] 2.48

Look up and report measured IC50 for this entry: C#CCNC(=O)n1c(C)cc2cc(Nc3ccnc4cc(C(=O)N5CC[C@@H](O)C5)sc34)ccc21 [Example 1o] 533

Look up and report measured IC50 for this entry: CO[C@H]1CCN(C(=O)c2cc3nccc(Oc4ccc5c(c4)cc(C)n5C(=O)NCC#N)c3s2)C1 [Example 9f] 13

Look up and report measured IC50 for this entry: Cc1cc2c(F)c(Oc3ccnc4cc(C(=O)N5CCC[C@H]5CO)sc34)ccc2n1C(=O)NC1CC1 [Example 5d] 21.5

Look up and report measured IC50 for this entry: C#CCNC(=O)n1c(C)cc2c(F)c(Oc3ccnc4cc(C(=O)N5CC[C@@H](O)C5)sc34)ccc21 [Example 5p] 4.6

Look up and report measured IC50 for this entry: COC[C@@H]1CCCN1C(=O)c1cc2nccc(Oc3ccc4c(cc(C)n4C(=O)NC4CC4)c3F)c2s1 [Example 5b] 13.1

Look up and report measured IC50 for this entry: CNC(=O)n1c(C)cc2cc(Oc3ccnc4cc(C(=O)N5CCC5)sc34)ccc21 [Example 8m] 4.5

Look up and report measured IC50 for this entry: CNC(=O)n1c(C)cc2cc(Oc3ccnc4cc(C(=O)N5CC(F)(F)C[C@H]5CO)sc34)ccc21 [Example 3p] 212

Look up and report measured IC50 for this entry: CCCNC(=O)n1c(C)cc2cc(Oc3ccnc4cc(C(=O)N5CC[C@H](O)C5)sc34)ccc21 [Example 9i] 36

Look up and report measured IC50 for this entry: CO[C@@H]1CCN(C(=O)c2cc3nccc(Oc4ccc5c(c4)cc(C)n5C(=O)NCC#CC4CC4)c3s2)C1 [Example 4m] 3.8

Look up and report measured IC50 for this entry: CNC(=O)n1c(C)cc2cc(Oc3ccnc4cc(C(=O)N5CCC[C@@H]5COC)sc34)ccc21 [Example 4e] 16.7

Look up and report measured IC50 for this entry: CO[C@H]1CCN(C(=O)c2cc3nccc(Nc4ccc5c(c4)cc(C)n5C(=O)NC4CC4)c3s2)C1 [Example 1f] 175

Look up and report measured IC50 for this entry: Cc1cc2cc(Oc3ccnc4cc(C(=O)N5CCC5)sc34)ccc2n1C(=O)NCCCO [Example 8n] 10.2

Look up and report measured IC50 for this entry: CO[C@H]1CCN(C(=O)c2cc3nccc(Oc4ccc5c(c4)cc(C)n5C(=O)NCCO)c3s2)C1 [Example 9c] 56

Look up and report measured IC50 for this entry: C#CCNC(=O)n1c(C)cc2c(F)c(Oc3ccnc4cc(C(=O)N5CCC[C@H]5CO)sc34)ccc21 [Example 5e] 14.1

Look up and report measured IC50 for this entry: CNC(=O)n1c(C)c(Cl)c2c(F)c(Oc3ccnc4cc(C(=O)N5CC[C@H](OC)C5)sc34)ccc21 [Example 6b] 21.2

Look up and report measured IC50 for this entry: C#CCNC(=O)n1c(C)cc2cc(Oc3ccnc4cc(C(=O)N5CC[C@@H](O)C5)sc34)ccc21 [Example 4o] 9

Look up and report measured IC50 for this entry: C#CCNC(=O)n1c(C)cc2cc(Oc3ccnc4cc(C(=O)N5CC[C@H](OC)C5)sc34)ccc21 [Example 4f] 14

Look up and report measured IC50 for this entry: CNC(=O)n1c(C)cc2c(F)c(Oc3ccnc4cc(C(=O)N5CC[C@H](OC)C5)sc34)ccc21 [Example 5f] 9.9

Look up and report measured IC50 for this entry: C#CCNC(=O)n1c(C)cc2c(F)c(Oc3ccnc4cc(C(=O)N5CC[C@@H](OC)C5)sc34)ccc21 [Example 5o] 3.65

====

Answer each item with its documented inhibition at 0.05 µM.
- tgt: unphosphorylated VEGF-R2Δ50 (FLVK) (Homo sapiens, UniProt P35968, DEL940-989/E990V)
- Construct: VEGF-R2Δ50 contains residues 806-939 and 990-1171; made in house; host or cells: baculovirus/insect cell system
- Sequence (P35968 with tags, fused parts or gaps DEL940-989/E990V limits assumed): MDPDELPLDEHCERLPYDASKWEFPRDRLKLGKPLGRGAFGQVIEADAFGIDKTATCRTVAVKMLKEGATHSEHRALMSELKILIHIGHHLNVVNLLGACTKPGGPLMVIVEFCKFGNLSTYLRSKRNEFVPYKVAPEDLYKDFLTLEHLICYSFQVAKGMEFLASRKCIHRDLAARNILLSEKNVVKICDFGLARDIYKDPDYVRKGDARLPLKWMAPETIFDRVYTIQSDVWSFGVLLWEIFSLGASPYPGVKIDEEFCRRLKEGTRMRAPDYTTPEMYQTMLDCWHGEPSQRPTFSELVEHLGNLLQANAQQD
- method_summary: VEGF-R2 coupled spectrophotometric assay, unphosphorylated construct (FLVK)
- Assay type: biochemical
- test_settings: percent inhibition at 50 nM
Record the result as a number with its unit.

Look up and report measured inhibition at 0.05 µM for this entry: Cc1cc2cc(Nc3ccnc4cc(C(=O)N5CCC[C@H]5CO)sc34)ccc2n1C(=O)NC1CC1 [Example 2e] 95%

Look up and report measured inhibition at 0.05 µM for this entry: CNC(=O)n1c(C)cc2cc(Oc3ccnc4cc(C(=O)N5CC(O)C5)sc34)ccc21 [Example 8o] 74%

Look up and report measured inhibition at 0.05 µM for this entry: COC[C@@H]1CCCN1C(=O)c1cc2nccc(Oc3ccc4c(c3)cc(C)n4C(=O)NCC#CCO)c2s1 [Example 4d] 91%

Look up and report measured inhibition at 0.05 µM for this entry: CNC(=O)n1c(C)cc2cc(Nc3ccnc4cc(C(=O)N5CCC[C@@H]5CO)sc34)ccc21 [Example 1a] 90%

====

- tgt: unphosphorylated VEGF-R2Δ50 (FLVK) (Homo sapiens, UniProt P35968, DEL940-989/E990V)
- Construct: VEGF-R2Δ50 contains residues 806-939 and 990-1171; made in house; host or cells: baculovirus/insect cell system
- method_summary: VEGF-R2 coupled spectrophotometric assay, unphosphorylated construct (FLVK)
- Format: biochemical
- test_settings: percent inhibition at 50 nM
- Experimental: This construct determines the ability of a test compound to inhibit tyrosine kinase activity. […] The production of ADP from ATP that accompanies phosphoryl transfer was coupled to oxidation of NADH using phosphoenolpyruvate (PEP) and a system having pyruvate kinase (PK) and lactic dehydrogenase (LDH). The oxidation of NADH was monitored by following the decrease of absorbance at 340 nm ([…]=6.22 cm^−1 mM^−1) using a Beckman DU 650 spectrophotometer. […]
assay_endpoint: inhibition at 0.05 µM (%)
Return type: number; implicit unit %.

Look up and report measured inhibition at 0.05 µM for this entry: "CO[C@H]1CCN(C(=O)c2cc3nccc(Oc4ccc5c(cc(C)n5C(=O)NC5CC5)c4F)c3s2)C1" 98

Look up and report measured inhibition at 0.05 µM for this entry: CNC(=O)n1c(C)cc2cc(Nc3ccnc4cc(C(=O)N5CC(F)[C@H](O)C5)sc34)ccc21 (stereo partly shown) 95

Look up and report measured inhibition at 0.05 µM for this entry: "C#CCNC(=O)n1c(C)cc2cc(Oc3ccnc4cc(C(=O)N5CCC[C@@H]5COC)sc34)ccc21" 98

Look up and report measured inhibition at 0.05 µM for this entry: "CO[C@H]1CN(C(=O)c2cc3nccc(Oc4ccc5c(c4)cc(C)n5C(=O)NC4CC4)c3s2)C[C@H]1OC" 98
